This collection of values is drawn from ChEMBL document CHEMBL1143301.

# TARGET OR SYSTEM: UniProtKB Q9BY41
# Sequence (Q9BY41 whole entry): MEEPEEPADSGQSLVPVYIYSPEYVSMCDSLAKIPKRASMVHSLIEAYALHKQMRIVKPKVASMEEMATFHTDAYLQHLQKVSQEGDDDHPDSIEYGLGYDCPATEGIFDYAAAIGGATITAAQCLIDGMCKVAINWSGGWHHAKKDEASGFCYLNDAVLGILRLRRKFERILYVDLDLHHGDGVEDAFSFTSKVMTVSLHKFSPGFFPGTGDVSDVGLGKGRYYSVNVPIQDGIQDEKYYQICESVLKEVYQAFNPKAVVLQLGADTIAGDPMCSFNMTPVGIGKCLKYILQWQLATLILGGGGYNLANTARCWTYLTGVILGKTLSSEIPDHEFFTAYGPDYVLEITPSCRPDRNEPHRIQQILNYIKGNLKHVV
# TEST DESCRIPTION: Inhibition of human recombinant histone deacetylase 8
Consider the cut-off 500 nM. If the recorded IC50 is strictly smaller, the label is Y; if not, the label is N.

- CHEM SMILES: "O=C(NO)c1ccc(CN2C(=O)CNC(=O)[C@H]2Cc2c[nH]c3ccccc23)cc1"
  GROUP LABEL: "N"
- CHEM SMILES: "O=C(NO)c1ccc(CN2c3ccccc3NC(=O)[C@H]2Cc2cccs2)cc1"
  GROUP LABEL: "N"
- CHEM SMILES: "O=C(NO)c1ccc(CN2c3ccccc3NC(=O)[C@H]2Cc2ccc(F)c(F)c2)cc1"
  GROUP LABEL: "Y"
- CHEM SMILES: "O=C(NO)c1ccc(CN2c3ccccc3NC(=O)[C@@H]2Cc2cccs2)cc1"
  GROUP LABEL: "N"
- CHEM SMILES: "O=C(NO)c1ccc(CN2C(=O)CNC(=O)[C@H]2Cc2ccccc2)cc1"
  GROUP LABEL: "N"
- CHEM SMILES: "CC(C)(C)OC(=O)NCCCC[C@@H]1C(=O)Nc2ccccc2N1Cc1ccc(C(=O)NO)cc1"
  GROUP LABEL: "N"
- CHEM SMILES: "O=C(NO)c1ccc(CN2c3ccccc3NC(=O)[C@H]2Cc2ccccc2)cc1"
  GROUP LABEL: "N"
- CHEM SMILES: "O=C(NO)c1ccc(CN2c3ccccc3NC(=O)[C@H]2Cc2ccc(O)cc2)cc1"
  GROUP LABEL: "N"
- CHEM SMILES: "O=C(NO)c1ccc(CN2c3ccccc3NC(=O)[C@@H]2Cc2ccccc2)cc1"
  GROUP LABEL: "Y"
- CHEM SMILES: "O=C1CN(Cc2ccc(C(=O)NO)cc2)c2ccccc2N1"
  GROUP LABEL: "N"
- CHEM SMILES: "CC(C)(C)Oc1ccc(C[C@@H]2C(=O)Nc3ccccc3N2Cc2ccc(C(=O)NO)cc2)cc1"
  GROUP LABEL: "Y"
- CHEM SMILES: "O=C(NO)c1ccc(CN2C(=O)CNC(=O)[C@H]2Cc2cccs2)cc1"
  GROUP LABEL: "Y"
- CHEM SMILES: "O=C(NO)c1ccc(CN2c3ccccc3NC(=O)[C@H]2CCc2ccccc2)cc1"
  GROUP LABEL: "N"

====

# TARGET OR SYSTEM: UniProt:Q9UBN7
# Sequence (Q9UBN7 whole entry): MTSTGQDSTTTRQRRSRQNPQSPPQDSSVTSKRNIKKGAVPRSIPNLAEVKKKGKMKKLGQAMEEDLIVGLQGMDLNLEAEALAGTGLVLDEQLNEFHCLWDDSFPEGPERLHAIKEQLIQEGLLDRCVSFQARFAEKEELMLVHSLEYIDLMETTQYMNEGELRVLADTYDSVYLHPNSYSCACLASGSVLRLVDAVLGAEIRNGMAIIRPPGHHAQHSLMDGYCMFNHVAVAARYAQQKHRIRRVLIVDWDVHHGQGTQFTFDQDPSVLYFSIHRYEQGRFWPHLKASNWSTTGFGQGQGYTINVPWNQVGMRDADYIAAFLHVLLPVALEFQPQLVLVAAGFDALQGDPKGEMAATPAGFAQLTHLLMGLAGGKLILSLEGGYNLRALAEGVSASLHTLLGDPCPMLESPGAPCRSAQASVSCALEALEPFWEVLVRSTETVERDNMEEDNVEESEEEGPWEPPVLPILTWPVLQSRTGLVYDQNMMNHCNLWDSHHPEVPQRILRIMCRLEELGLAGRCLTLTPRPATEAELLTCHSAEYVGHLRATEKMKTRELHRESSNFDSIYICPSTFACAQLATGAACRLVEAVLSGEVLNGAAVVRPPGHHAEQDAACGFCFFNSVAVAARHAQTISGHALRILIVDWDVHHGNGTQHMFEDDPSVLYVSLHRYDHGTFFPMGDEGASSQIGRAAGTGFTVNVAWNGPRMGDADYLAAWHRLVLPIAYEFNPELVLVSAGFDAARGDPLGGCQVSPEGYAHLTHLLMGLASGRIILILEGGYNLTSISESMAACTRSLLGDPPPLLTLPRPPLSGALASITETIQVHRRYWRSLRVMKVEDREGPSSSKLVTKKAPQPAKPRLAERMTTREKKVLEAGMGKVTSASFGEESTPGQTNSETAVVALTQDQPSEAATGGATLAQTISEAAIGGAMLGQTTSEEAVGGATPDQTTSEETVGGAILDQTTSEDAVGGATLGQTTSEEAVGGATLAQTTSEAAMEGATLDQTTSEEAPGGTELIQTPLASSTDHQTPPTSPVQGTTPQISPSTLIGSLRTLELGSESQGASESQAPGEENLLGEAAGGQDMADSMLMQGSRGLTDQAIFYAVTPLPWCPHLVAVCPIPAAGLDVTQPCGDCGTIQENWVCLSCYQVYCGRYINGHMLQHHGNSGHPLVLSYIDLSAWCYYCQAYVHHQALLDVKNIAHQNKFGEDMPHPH
METRIC NAME: IC50 (nM)

- CHEM SMILES: "O=C(NO)c1ccc(CN2c3ccccc3NC(=O)[C@H]2Cc2ccccc2)cc1"
  METRIC NAME: "IC50"
  OBSERVED: 10
- CHEM SMILES: "CC(C)(C)Oc1ccc(C[C@@H]2C(=O)Nc3ccccc3N2Cc2ccc(C(=O)NO)cc2)cc1"
  METRIC NAME: "IC50"
  OBSERVED: 50
- CHEM SMILES: "O=C(NO)c1ccc(CN2c3ccccc3NC(=O)[C@H]2CCc2ccccc2)cc1"
  METRIC NAME: "IC50"
  OBSERVED: 10
- CHEM SMILES: "O=C(NO)c1ccc(CN2c3ccccc3NC(=O)[C@H]2Cc2ccc(O)cc2)cc1"
  METRIC NAME: "IC50"
  OBSERVED: 10
- CHEM SMILES: "O=C(NO)c1ccc(CN2c3ccccc3NC(=O)[C@@H]2Cc2ccccc2)cc1"
  METRIC NAME: "IC50"
  OBSERVED: 220
